Reported values of composite z-score for individual entries
Test system: Fibrinogen (Alexa647-labelled)
Method summary: fibrinogen binders on compound microarrays, profiling panel, artefact control for SMM control-protein annotation, biochemical, small-molecule microarray, 635/667 nm fluorescence (AID 1131);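 further: z-score merges 667 nm fluorescence with per-spot signal-to-noise over triplicate slides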
Condition parameters: fibrinogen-A647 binding fluorescence, higher = more signal
Hey, just send me the number, nothing else.

>  <Molecule>
COCCOC(=O)N1C(=O)[C@@]2(c3ccccc31)[C@H](c1ccccc1OCCO)N1[C@H](c3ccccc3)[C@H](c3ccccc3)OC(=O)[C@H]1[C@@H]2C(=O)N1CCN(c2ncccn2)CC1

>  <composite z-score>
0.64

$$$$
>  <Molecule>
Cc1ccc(S[C@]2(C(=O)NCCCN(C)C)CC(=O)N(Cc3cc(C(F)(F)F)cc(C(F)(F)F)c3)[C@@H]2c2ccc(CO)cc2)cc1

>  <composite z-score>
-0.603

$$$$
>  <Molecule>
CN1C(=O)C2C=CC(C(O)c3ccccc3)N(N(c3ccccc3)c3ccccc3)C2C1=O (centres undefined)

>  <composite z-score>
0.384

$$$$
>  <Molecule>
COCCOC(=O)N1C(=O)[C@@]2(c3cc(C#CCC(C(=O)OC)C(=O)OC)ccc31)[C@H](C(=O)N1CCN(c3ncccn3)CC1)[C@H]1C(=O)O[C@H](c3ccccc3)[C@H](c3ccccc3)N1[C@@H]2c1ccccc1OCCO

>  <composite z-score>
0.997

$$$$

Turning now to a further record.
Ask | Consider the molecule shown here: CC(C)C[C@@H]1NC(=O)[C@@H]2C[C@H](C(=O)O)[C@H](c3cccc(OCCO)c3)N2C1=O What is its recorded composite z-score?
Reply | -0.0031

Numbers sourced from PubChem BioAssay.
